experimental_details: Mouse pharmacokinetic study, intravenous dosing
Format: in vivo
test_settings: male, C57BL/6, mouse, iv; plasma, 10 mg/kg i.v., time 0.133 h; read-out: Parent compound concentration following intravenous administration
measurement_name: concentration at 0.133 h (ng/mL)

// below: answered molecules
C=C(CC(=O)O[C@H]1C[C@H]2CC[C@]1(C)C2(C)C)C(=O)OCC(=O)O    5320
C=C(CC(=O)OC1CCCCC1)C(=O)OCc1nnn[nH]1    3870
C=C(CC(=O)O[C@@H](CC)CCCCC)C(=O)OCC(=O)O    21900

(I) C=C(CC(=O)OC1CCCCCCC1)C(=O)OCC(=O)O
(II) C=C(CC(=O)OC(C)(C)CCCCCC)C(=O)OCC(=O)O
Which one would you say has the larger concentration at 0.133 h value: I , or II ? Bench note: the answer is the label of the chosen record. II

(a) C=C(CC(=O)OC1CCCCCCC1)C(=O)OCCC(=O)O
(b) C=C(CC(=O)O[C@@H](CCCCCC)C(F)(F)F)C(=O)OCC(=O)O
(c) C=C(CC(=O)O[C@H](C)CCCCCC)C(=O)OCC(=O)O
(d) C=C(CC(=O)O[C@@H](C)CCCCCC)C(=O)OCCc1nnn[nH]1
(e) C=C(CC(=O)O[C@H](C)CCCCCC)C(=O)OCc1nn[nH]n1
Ascending by concentration at 0.133 h, please. Answer by writing out the labels in the requested order. d, e, a, b, c
(d: 872 ng/mL, e: 2380 ng/mL, a: 8350 ng/mL, b: 17900 ng/mL, c: 40100 ng/mL)

(P) C=C(CC(=O)OC1CCCCCCC1)C(=O)OCc1nnn[nH]1
(Q) C=C(CC(=O)O[C@H](CC)CCCCC)C(=O)OCC(=O)O
Which one would you say has the larger concentration at 0.133 h value: P , or Q ? Bench note: the answer is the label of the chosen record. Q

* * *

experimental_details: Mouse pharmacokinetic study, oral administration
Type: in vivo
test_settings: male, C57BL/6, mouse, plasma, po, 100 mg/kg, plasma, male C57BL/6 mice, oral gavage 100 mg/kg, 0.5 h; read-out: Parent compound concentrations following oral administration, Time 0.5 h
measurement_name: concentration at 0.5 h (ng/mL)

C=C(CC(=O)O[C@@H](CCCCCC)C(F)(F)F)C(=O)OCC(=O)O [Example 182]    27900
C=C(CC(=O)O[C@@H](C)CCCCCC)C(=O)OCC(=O)O [Example 89]    28500

(I) C=C(CC(=O)O[C@H](C)CCCCCC)C(=O)OCCC(=O)O [Example 88]
(II) C=C(CC(=O)OCCCOc1ccccc1)C(=O)OCCC(=O)O [Example 86]
(III) C=C(CC(=O)OC1CC2(CCC2)C1)C(=O)OCC(=O)O [Example 96]
Sort by concentration at 0.5 h, descending. Answer by writing out the labels in the requested order. I, III, II
(I: 33800 ng/mL, III: 3780 ng/mL, II: 943 ng/mL)

* * *

experimental_details: Mouse pharmacokinetic study, oral administration
Type: in vivo
test_settings: male, C57BL/6, mouse, plasma, po, 100 mg/kg, plasma, male C57BL/6 mice, oral gavage 100 mg/kg, 6 h; read-out: Parent compound concentrations following oral administration, Time 6 h
measurement_name: concentration at 6 h (ng/mL)

C=C(CC(=O)OC1CC2(CCC2)C1)C(=O)OCC(=O)O    330
C=C(CC(=O)O[C@@H](CC)CCCCC)C(=O)OCC(=O)O    441

* * *

experimental_details: Mouse pharmacokinetic study, oral administration
Type: in vivo
test_settings: male, C57BL/6, mouse, plasma, po, 100 mg/kg, plasma, male C57BL/6 mice, oral gavage 100 mg/kg, 8 h; read-out: Parent compound concentrations following oral administration, Time 8 h
measurement_name: concentration at 8 h (ng/mL)

// below: answered compounds
C=C(CC(=O)OCCCCCC)C(=O)OCC(=O)O    90
C=C(CC(=O)OC(CCCC)CCCC)C(=O)OCC(=O)O    231
C=C(CC(=O)OC1CCCCCCC1)C(=O)OCc1nnn[nH]1    62
C=C(CC(=O)O[C@@H](C)CCCCCC)C(=O)OCCc1nnn[nH]1    11

(A) C=C(CC(=O)OC1CCCCCCC1)C(=O)OCC(=O)O
(B) C=C(CC(=O)O[C@@H](C)CCCCCC)C(=O)OCC(=O)O
(C) C=C(CC(=O)OC1CCCCC1)C(=O)OCCC(=O)O
Ascending by concentration at 8 h, please. Answer by writing out the labels in the requested order. B, C, A

* * *

experimental_details: Mouse pharmacokinetic study, intravenous dosing
Assay type: in vivo
test_settings: male, C57BL/6, mouse, iv; plasma, 10 mg/kg i.v., time 2 h; read-out: Parent compound concentration following intravenous administration
measurement_name: concentration at 2 h (ng/mL)

// below: answered compounds
C=C(CC(=O)O[C@@H](CC)CCCCC)C(=O)OCC(=O)O [Example 170]    66
C=C(CC(=O)OC12CC3CC(CC(C3)C1)C2)C(=O)OCC(=O)O [Example 172]    9.9

(I) C=C(CC(=O)OC(C)(C)CCCCC)C(=O)OCC(=O)O [Example 193]
(II) C=C(CC(=O)OC(C)(C)CCCCCC)C(=O)OCC(=O)O [Example 192]
(III) C=C(CC(=O)OC1CCCCCCC1)C(=O)OCCC(=O)O [Example 82]
Ascending by concentration at 2 h, please. Answer by writing out the labels in the requested order. III, I, II

* * *

Tested on: IL-1β cytokine output from THP-1s
experimental_details: THP-1 AlphaLISA IL-1β cytokine assay
Format: cell-based, human
test_settings: Homo sapiens, THP-1, PMA-differentiated THP-1 cells, LPS 24 hr then Nigericin 1 hour; read-out: IL-1β (IC50)
pIC50: −log10 of the molar value.
measurement_name: pIC50

// below: answered compounds
C=C(CC(=O)OCCCCCCCC)C(=O)O[C@@H]1CCOC1    4.82
C=C(CC(=O)OC(C)C1CCCCC1)C(=O)OCC(=O)O (centres unmarked)    4.93
C=C(CC(=O)OCCCCCC)C(=O)OCCC(=O)O    4.65
C=C(CC(=O)OC1CCCCC1)C(=O)OC(C)C(=O)O (centres unmarked)    4.00
C=C(CC(=O)OCCCCCCCC)C(=O)OCC(C)(C)OC    4.50
C=C(CC(=O)OCCCCCC)C(=O)OCCC#N    5.43
C=C(CC(=O)O[C@H](C)CCCCCC)C(=O)OCc1cc(=O)[nH]o1    5.54
C=C(CC(=O)OC(CCC)CCC)C(=O)OCC(=O)O    4.53
C=C(CC(=O)OCCCCCCCC)C(=O)OCC(C)OC (centres unmarked)    4.85
C=C(CC(=O)OC1CCCCCCC1)C(=O)OCCN1CCCC1=O    5.06

(a) C=C(CC(=O)OCCCCCCCC)C(=O)OC1CC(F)(F)C1
(b) C=C(CC(=O)OCCCCCCCC)C(=O)OCCN1CCOCC1
(c) C=C(CC(=O)OC1CCCCCCC1)C(=O)O[C@@H](C)[C@@H](NC(C)=O)C(=O)O (stereo in doubt)
Sort by pIC50, descending. Answer by writing out the labels in the requested order. b, a, c

* * *

experimental_details: Mouse pharmacokinetic study, oral administration
Type: in vivo
test_settings: male, C57BL/6, mouse, plasma, po, 100 mg/kg, plasma, male C57BL/6 mice, oral gavage 100 mg/kg, 4 h; read-out: Parent compound concentrations following oral administration, Time 4 h
measurement_name: concentration at 4 h (ng/mL)

// below: answered molecules
C=C(CC(=O)O[C@H](C)CCCCCC)C(=O)OCCC(=O)O [Example 88]    4100
C=C(CC(=O)OC1CCCCCCC1)C(=O)OC(C)c1nnn[nH]1 (centres unmarked) [Example 133]    799
C=C(CC(=O)O[C@H](CC)CCCCC)C(=O)OCC(=O)O [Example 178]    1460
C=C(CC(=O)O[C@H](C)CCCCCC)C(=O)OCc1nn[nH]n1 [Example 161]    186
C=C(CC(=O)O[C@@H](CCCCCC)C(F)(F)F)C(=O)OCC(=O)O [Example 182]    1370
C=C(CC(=O)OC1CCCCC1)C(=O)OCc1nnn[nH]1 [Example 125]    427
C=C(CC(=O)O[C@H](C)CCCCCC)C(=O)OCC(=O)O [Example 112]    21300
C=C(CC(=O)OCCCCCCCC)C(=O)OCC(=O)O [Example 49]    12

(I) C=C(CC(=O)O[C@@H](C)CCCCCC)C(=O)OCC(=O)O [Example 89]
(II) C=C(CC(=O)OC(CCCC)CCCC)C(=O)OCC(=O)O [Example 175]
Lower value of concentration at 4 h belongs to which: I or II ? Bench note: the answer is the label of the chosen record. I

(I) C=C(CC(=O)OC1C(C)(C)CC1(C)C)C(=O)OCC(=O)O [Example 169]
(II) C=C(CC(=O)O[C@@H](C)CCCCCC)C(=O)OCCc1nnn[nH]1 [Example 129]
(III) C=C(CC(=O)OCCCOc1ccccc1)C(=O)OCCC(=O)O [Example 86]
(IV) C=C(CC(=O)OC1CC2(CCC2)C1)C(=O)OCC(=O)O [Example 96]
(V) C=C(CC(=O)OC(C)(C)CCCCCC)C(=O)OCC(=O)O [Example 192]
Ascending by concentration at 4 h, please. Answer by writing out the labels in the requested order. II, III, I, IV, V

(I) C=C(CC(=O)OC1CCCCCCC1)C(=O)OCc1nnn[nH]1 [Example 134]
(II) C=C(CC(=O)OC(C)(C)CCCCC)C(=O)OCC(=O)O [Example 193]
Lower value of concentration at 4 h belongs to which: I or II ? Bench note: the answer is the label of the chosen record. I

(A) C=C(CC(=O)O[C@@H](CC)CCCCC)C(=O)OCC(=O)O [Example 170]
(B) C=C(CC(=O)OC1CCCCCCC1)C(=O)OCC(=O)O [Example 90]
(C) C=C(CC(=O)OCCCCCC)C(=O)OCC(=O)O [Example 94]
Ascending by concentration at 4 h, please. Answer by writing out the labels in the requested order. C, B, A

Every entry's value here was drawn from patent US12390437B2.
